Every entry's value here was drawn from patent US7880007B2.

# system-under-test: M1 muscarinic receptor (Homo sapiens)
# Construct: expressed in transfected cells; host or cells: CHO (M1-CHO)
# procedure-text: Functional mobilization of intracellular calcium (FLIPR), M1-CHO cells
# Assay type: cell-based
# condition-summary: 100% efficacy is the maximum response obtained with the Carbachol control
Listed next: entries and their corresponding Emax.
parameter: Emax

INSERT INTO measurements (compound, assay_value) VALUES
  ('COc1ccccc1C1CCN(C2CCC(OC(=O)c3ccccc3)CC2)CC1 (stereo not shown) [Compound 410]', '< 25%'),
  ('COc1ccc(-c2ccc(NC(C)=O)cc2)cc1C1CCN([C@H]2C[C@H]3CC[C@H]2C3)CC1 [Compound 400]', '< 25%'),
  ('COc1ccc(F)cc1C1CCN(C2CCC3CCC2C3)CC1 (stereo not shown) [Compound 412]', '25 to 100%'),
  ('Cc1ccc(F)cc1C1CCN(CC2C[C@H]3CC[C@H]2C3)CC1 (stereo partly shown) [Compound 424]', '25 to 100%');

* * *

# system-under-test: M1 muscarinic receptor (Homo sapiens)
# Construct: expressed in transfected cells; host or cells: CHO (M1-CHO)
# Sequence (P11229 1-460): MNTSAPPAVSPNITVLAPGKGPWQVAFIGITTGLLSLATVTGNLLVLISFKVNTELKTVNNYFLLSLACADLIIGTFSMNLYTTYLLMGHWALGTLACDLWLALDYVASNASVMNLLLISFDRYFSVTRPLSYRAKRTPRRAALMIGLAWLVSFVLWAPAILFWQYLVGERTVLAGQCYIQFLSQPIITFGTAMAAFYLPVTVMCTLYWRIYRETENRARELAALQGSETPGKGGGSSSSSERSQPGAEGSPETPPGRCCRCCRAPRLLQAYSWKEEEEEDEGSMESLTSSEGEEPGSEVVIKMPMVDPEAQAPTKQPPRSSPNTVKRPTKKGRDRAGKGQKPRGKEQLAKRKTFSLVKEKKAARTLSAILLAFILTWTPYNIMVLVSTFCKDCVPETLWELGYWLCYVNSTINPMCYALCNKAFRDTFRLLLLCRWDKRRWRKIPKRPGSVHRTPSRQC
# procedure-text: Functional mobilization of intracellular calcium (FLIPR), M1-CHO cells
# Format: cell-based
# condition-summary: 100% efficacy = maximum response obtained with the Carbachol control
Listed next: entries and their corresponding Emax.
parameter: Emax

INSERT INTO assay_data (compound, assay_value) VALUES
  ('CCCC1CCC(N2CCC(c3cc(Cl)ccc3OC)CC2)CC1 (stereo not drawn)', '25 to 100%'),
  ('CCOC(=O)N1CCC(N2C3CCC2CC(c2ccccc2OC)C3)CC1 (stereo not drawn)', '< 25%'),
  ('COc1ccc(F)cc1C1CCN(C[C@@H]2C[C@H]3C=C[C@H]2C3)CC1', '25 to 100%'),
  ('COCCOc1ccccc1C1CCN([C@H]2C[C@H]3CC[C@H]2C3)CC1', '25 to 100%'),
  ('Clc1cccc(C2CCN(C3CC4CCC(C4)C3)CC2)c1 (stereo not drawn)', '25 to 100%'),
  ('COc1ccc(Cl)cc1C1(F)CCN(C2CCC3CCC2C3)CC1 (stereo not drawn)', '25 to 100%'),
  ('O=C(COc1ccccc1C1CCN([C@H]2C[C@H]3CC[C@H]2C3)CC1)c1cccc(Cl)c1', '< 25%'),
  ('CCOC(=O)N1CCC(CN2CCC(c3cc(C#N)ccc3OC)CC2)CC1', '25 to 100%'),
  ('COc1ccccc1C1CCN(CC2CC3CCC2O3)CC1 (stereo not drawn)', '< 25%');

* * *

# system-under-test: M2 muscarinic receptor (Homo sapiens, UniProt P08172)
# Construct: expressed in transfected cells; host or cells: CHO (M2-CHO)
# Sequence (P08172 whole entry): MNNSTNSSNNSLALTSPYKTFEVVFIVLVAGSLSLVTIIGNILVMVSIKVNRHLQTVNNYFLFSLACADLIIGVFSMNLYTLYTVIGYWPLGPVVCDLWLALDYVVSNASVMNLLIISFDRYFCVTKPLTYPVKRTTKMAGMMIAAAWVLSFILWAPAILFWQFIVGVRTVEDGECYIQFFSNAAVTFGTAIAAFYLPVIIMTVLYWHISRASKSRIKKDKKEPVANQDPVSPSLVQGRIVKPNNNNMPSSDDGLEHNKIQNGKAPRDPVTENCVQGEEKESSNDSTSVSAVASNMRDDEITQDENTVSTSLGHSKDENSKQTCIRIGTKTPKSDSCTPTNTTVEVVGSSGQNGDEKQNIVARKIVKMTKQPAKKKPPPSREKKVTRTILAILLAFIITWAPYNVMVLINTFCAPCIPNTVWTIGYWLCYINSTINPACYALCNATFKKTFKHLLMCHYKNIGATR
# procedure-text: Functional mobilization of intracellular calcium (FLIPR), M2-CHO cells
# Assay type: cell-based
# condition-summary: 100% efficacy is the maximum response obtained with the Carbachol control
parameter: Emax

INSERT INTO measurements (molecule, system_under_test, assay_value) VALUES
  ('CCON=C1CCC(N2CCC(c3cc(Cl)ccc3OC)CC2)CC1 (stereo not drawn)', 'M2 muscarinic receptor (Homo sapiens, UniProt P08172)', '25 to 100%'),
  ('COc1ccccc1-c1ccccc1C1CCN([C@H]2C[C@H]3CC[C@H]2C3)CC1', 'M2 muscarinic receptor (Homo sapiens, UniProt P08172)', '< 25%'),
  ('COc1ccccc1C1CCN(C2C3CC4CC(C3)CC2C4)CC1 (stereo not drawn)', 'M2 muscarinic receptor (Homo sapiens, UniProt P08172)', '< 25%'),
  ('COc1ccc(F)cc1C1CCN(C2CCC3CCC2C3)CC1 (stereo not drawn)', 'M2 muscarinic receptor (Homo sapiens, UniProt P08172)', '< 25%'),
  ('COc1ccc(C(=O)c2ccoc2)cc1C1CCN([C@@H]2C[C@H]3CC[C@H]2C3)CC1', 'M2 muscarinic receptor (Homo sapiens, UniProt P08172)', '< 25%'),
  ('COc1ccc(-c2ccc(C(=O)Nc3nccs3)cc2)cc1C1CCN(C2CCOCC2)CC1', 'M2 muscarinic receptor (Homo sapiens, UniProt P08172)', '< 25%'),
  ('COc1ccccc1C1CCN(C2CCCC(O)CCC2)CC1 (stereo not drawn)', 'M2 muscarinic receptor (Homo sapiens, UniProt P08172)', '< 25%'),
  ('COc1ccccc1C(=O)COc1ccccc1C1CCN([C@H]2C[C@H]3CC[C@H]2C3)CC1', 'M2 muscarinic receptor (Homo sapiens, UniProt P08172)', '25 to 100%'),
  ('COc1ccc(Cl)cc1C1(F)CCN(C2CCCCC2)CC1', 'M2 muscarinic receptor (Homo sapiens, UniProt P08172)', '25 to 100%');

* * *

# system-under-test: M4 muscarinic receptor (Homo sapiens, UniProt P08173)
# Construct: expressed in transfected cells; host or cells: CHO (M4-CHO)
# procedure-text: Functional mobilization of intracellular calcium (FLIPR), M4-CHO cells
# Format: cell-based
# condition-summary: 100% efficacy = maximum response obtained with the Carbachol control
parameter: Emax

INSERT INTO measurements (compound, assay_value) VALUES
  ('Oc1ccccc1C1CCN(C2CC3CC[C@H]2C3)CC1 (stereo in doubt) [Compound 229]', '25 to 100%'),
  ('COc1ccccc1C1CCN(CC2=CC[C@@H]3C[C@@H]2C3(C)C)CC1 [Compound 291]', '< 25%'),
  ('COc1ccc(-c2cccc(F)c2F)cc1C1CCN([C@@H]2C[C@H]3CC[C@H]2C3)CC1 [Compound 318]', '25 to 100%'),
  ('COc1ccc(-c2cc(F)ccc2F)cc1C1CCN([C@H]2C[C@H]3CC[C@H]2C3)CC1 [Compound 206]', '25 to 100%'),
  ('Cc1ccc(C(F)(F)F)cc1C1CCN(C2CCOCC2)CC1 [Compound 358]', '25 to 100%'),
  ('CCCC1CCC(N2CCC(O)(c3cc(Cl)ccc3OC)CC2)CC1 (centres unmarked) [Compound 164]', '25 to 100%'),
  ('COc1ccccc1C1CCN(C2CCC(c3ccccc3)CC2)CC1 (centres unmarked) [Compound 234]', '< 25%'),
  ('CCOC(=O)N1CCC(CN2CCC(OC)(c3cc(F)ccc3OC)CC2)CC1 [Compound 295]', '25 to 100%');

* * *

# system-under-test: M4 muscarinic receptor (Homo sapiens, UniProt P08173)
# Construct: expressed in transfected cells; host or cells: CHO (M4-CHO)
# Sequence (P08173 1-479): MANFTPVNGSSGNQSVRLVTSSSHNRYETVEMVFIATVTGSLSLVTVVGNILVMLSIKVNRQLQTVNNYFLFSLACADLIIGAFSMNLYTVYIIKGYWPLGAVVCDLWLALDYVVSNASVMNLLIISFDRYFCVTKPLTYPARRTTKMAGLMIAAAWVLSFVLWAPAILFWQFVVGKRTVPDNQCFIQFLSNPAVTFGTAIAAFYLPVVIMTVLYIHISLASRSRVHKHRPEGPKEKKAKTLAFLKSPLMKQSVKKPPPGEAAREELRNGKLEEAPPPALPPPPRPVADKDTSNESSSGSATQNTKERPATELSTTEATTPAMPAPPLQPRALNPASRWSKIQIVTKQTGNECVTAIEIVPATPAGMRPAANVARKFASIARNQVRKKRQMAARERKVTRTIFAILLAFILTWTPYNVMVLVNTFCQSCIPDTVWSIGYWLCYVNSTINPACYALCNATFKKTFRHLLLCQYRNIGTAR
# procedure-text: Functional mobilization of intracellular calcium (FLIPR), M4-CHO cells
# Assay type: cell-based
# condition-summary: 100% efficacy = maximum response obtained with the Carbachol control
Listed next: entries and their corresponding Emax.
parameter: Emax

INSERT INTO results (compound, system_under_test, assay_value) VALUES
  ('COc1ccccc1C1CC2CCC(C1)N2C1CCOCC1 (centres unmarked)', 'M4 muscarinic receptor (Homo sapiens, UniProt P08173)', '< 25%'),
  ('CCCOc1ccccc1C1CCN([C@H]2C[C@H]3CC[C@H]2C3)CC1', 'M4 muscarinic receptor (Homo sapiens, UniProt P08173)', '25 to 100%'),
  ('Cc1ccccc1C1(O)CCN(C2CC3CCC2C3)CC1 (centres unmarked)', 'M4 muscarinic receptor (Homo sapiens, UniProt P08173)', '< 25%'),
  ('COc1ccc(Cl)cc1C1(OC)CCN(C2CCC3CCC2C3)CC1 (centres unmarked)', 'M4 muscarinic receptor (Homo sapiens, UniProt P08173)', '25 to 100%'),
  ('COc1ccccc1C1CCN(C2CCCS(=O)(=O)CC2)CC1 (centres unmarked)', 'M4 muscarinic receptor (Homo sapiens, UniProt P08173)', '25 to 100%');
